Reference source: the supplement of paper PMC3334620

- test.target: Sut1 (UniProt P53032)
- Sequence: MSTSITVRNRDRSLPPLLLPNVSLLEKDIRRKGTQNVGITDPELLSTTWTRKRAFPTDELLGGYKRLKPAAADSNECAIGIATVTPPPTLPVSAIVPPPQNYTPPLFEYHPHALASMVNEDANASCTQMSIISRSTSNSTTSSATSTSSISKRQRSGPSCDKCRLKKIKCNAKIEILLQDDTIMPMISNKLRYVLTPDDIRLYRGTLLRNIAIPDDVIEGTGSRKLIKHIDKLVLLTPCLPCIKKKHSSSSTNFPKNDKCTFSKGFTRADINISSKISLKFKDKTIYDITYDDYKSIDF
- test.summary: PBM E-score (8-mer binding enrichment) (E-score (-0.5 to 0.5)); higher = stronger / more preferred TF binding
- run.parameters: protein concentration: 200 nM; construct: GST-full length
Whole data set: some 33,000 sequences, median “E-score (-0.5 to 0.5)” near -0.017, cut for the highest 2% near 0.3. The full list was thinned out, with the highest values kept by preference.
Examples of sequences with documented PBM E-score follow.
Field format: numeric only.

Known results for sequences:
>>> print(df.to_string())
   sequence            test_target  measured
0  GCATACAA  Sut1 (UniProt P53032)    0.0888
1  AGGGCAGA  Sut1 (UniProt P53032)    -0.348
2  TTATACAA  Sut1 (UniProt P53032)     0.326
3  CCCGAAGA  Sut1 (UniProt P53032)   -0.0672

Query (sequence): TGTCTGAA ; field requested: PBM E-score
0.0592

// query PBM E-score value for entry TCTCCGAA
0.446

Please give the measured PBM E-score for this sequence: TGACTTAA
0.153

PBM E-score for AGGAATTA ?
0.137

Param item = CATTGAAA ; retrieve measured PBM E-score.
0.249

Quick one: PBM E-score of AAGGTTGA ?
0.0981
